# target.system: T1, PACAP38 (human, K at residue 38 modified by C-terminal amidation)
# T1 peptide: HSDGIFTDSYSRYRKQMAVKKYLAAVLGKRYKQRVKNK
# test.protocol: cell-based or functional assay
value.kind: Inhibition (IC50) of PACAP38 (100 pM) induced cAMP in hPAC1 CHO-K1 cells
Write the value in pM as a bare number.

Example results:
{"binder": "Exemplified Antibody D (antibody, human IgG4 S228P, kappa, F234A L235A, V domains shown, IgG4, kappa light chain; also called Exemplified Ab D; Ab D) VH: EVQLLESGGGLVQPGGSLRLSCAASGFTFSSYYMSWVRQAPGKGLEWVSAISLSGGSTYYAQSHKGRFTISRDNSKNTLYLQMNSLRAEDTAVYYCVREVGASTHNYYGMDVWGQGTMVTVSS VL: DIQMTQSPSSLSASVGDRVTITCRASQSIWRWLAWYQQKPGKAPKLLIHDASQLFEGVPSRFSGSGSGTDFTFTISSLQPEDIATYYCQQFDLLPLTFGGGTKVEIKR", "unit.spec": "pM", "measured": 205}
{"binder": "Exemplified Antibody C (antibody, human IgG4 S228P, kappa, F234A L235A, V domains shown, IgG4, kappa light chain; also called Exemplified Ab C; Ab C) VH: EVQLLESGGGLVQPGGSLRLSCAASGFTFSSYYMSWVRQAPGKGLEWVSAISLSGGSTYYAESHKGRFTISRDNSKNTLYLQMNSLRAEDTAVYYCVREVGASTHNYYGMDVWGQGTMVTVSS VL: DIQMTQSPSSLSASVGDRVTITCRASQSIWRWLAWYQQKPGKAPKLLIHDASQLFEGVPSRFSGSGSGTDFTFTISSLQPEDIATYYCQQFDLLPLTFGGGTKVEIKR", "unit.spec": "pM", "measured": 303}

Below: the item to evaluate.
Exam item: Provide only the value of recorded Inhibition (IC50) of PACAP38 (100 pM) induced cAMP in hPAC1 CHO-K1 cells for Exemplified Antibody B (antibody, human IgG4 S228P, kappa, F234A L235A, V domains shown, IgG4, kappa light chain; also called Exemplified Ab B; Ab B) VH: EVQLLESGGGLVQPGGSLRLSCAASGFTFSSYYMSWVRQAPGKGLEWVSAISLSGGSTYYAASHKGRFTISRDNSKNTLYLQMNSLRAEDTAVYYCVREVGASTHNYYGMDVWGQGTMVTVSS VL: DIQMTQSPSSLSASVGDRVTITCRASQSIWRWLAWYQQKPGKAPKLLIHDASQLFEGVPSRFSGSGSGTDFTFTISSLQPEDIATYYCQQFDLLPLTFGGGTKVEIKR
Marked response: 265
